System: Vero cells
Type: cell-based
Settings: read-out: IC50 of toxicity
measurement-label: IC50 (nM)
Answers are plain numbers, in nM.

Look up IC50: C[C@@H]1C[C@@H]([C@H](O)CC2CC(=O)NC(=O)C2)C(=O)[C@@H](C)C1 [cyclohexamide] 200
